The measurements presented in this section are drawn from paper PMC5540273.

Parameter %Inh: see the listing below.
- Test system: PDGFRB
- Run Parameters: concentration: 1 μM, replicates: in singlicate; n = 1;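 note: KINOMEscan kinase panel screen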
Lab book: enter the figure in %, no units written.

- Molecule: "COc1ccc(Nc2nccc(N3CCC(NC(=O)c4cccc(NC(C)=O)c4)C3)n2)cc1 (stereo not drawn)"
  Value Units: "%"
  %Inh: 20

Form field: reported %Inh of CCc1nc(-c2cccc(C)c2)c(-c2ccnc(NC(=O)c3ccccc3)c2)s1
0

I would be grateful if you could share the reported %Inh for Cl.c1ccc(Cn2ncc3cc(Nc4ncnc5ccccc45)ccc32)cc1 .
0

What value of %Inh has been reported for the following molecule? COc1cc2ncnc(Nc3ccc(OCc4ccccc4Br)c(Cl)c3)c2cc1OC.Cl
0

GET /values?readout=%Inh&item= CSc1nn2c(=O)cc(N3CCOCC3)nc2n1Cc1cccc(Cl)c1Cl
24

Need %Inh of CNc1nccc(-c2c(-c3ccc(F)cc3)ncn2CCCN2CCOCC2)n1 , thanks.
4

Fill in: %Inh of Cl.Cn1ccc(-c2cccc(Nc3ccnc4cc(-c5nccs5)ccc34)c2)n1 is ___
40

I would be grateful if you could share the reported %Inh for Nc1nccc2scc(-c3ccc4c(c3)CCN4C(=O)Cc3cc(F)ccc3F)c12 .
35

Data request, read-out %Inh, for Fc1cccc(COc2ccc(Nc3ncnc4cc[nH]c34)cc2Cl)c1
25

---

- System: MLK3
- Run Parameters: concentration: 1 μM, replicates: in singlicate; n = 1
Value Kind: %Inh (%)
Reply numerically in %, unit not repeated.

Check out these entries, answers already filled in.
- Smiles Record: "C[C@@H]1CCN(C(=O)CO)C[C@@H]1N(C)c1ncnc2[nH]ccc12"
  Reported Value: 8
- Smiles Record: "Nc1nc(-c2ccc3c(N)n[nH]c3c2)cc(N2CCC[C@@H](C(=O)Nc3ccccc3)C2)n1.O=C(O)C(F)(F)F.O=C(O)C(F)(F)F"
  Reported Value: 0
- Smiles Record: "Cl.c1ccc(Cn2ncc3cc(Nc4ncnc5ccccc45)ccc32)cc1"
  Reported Value: 0

Suppose we examine the molecule CSc1nn2c(=O)cc(N3CCOCC3)nc2n1Cc1cccc(Cl)c1Cl ; what %Inh value has been reported?
11

---

Some compounds, each annotated with its measured %Inh.
- Tested on: PAK3
- Run Parameters: concentration: 1 μM, replicates: in singlicate; n = 1
A number alone suffices; assume %.

Solved entries (count: 5):
- Compound: "CN1c2ccc(-c3ccc(C(=O)NCCO)cc3)cc2-c2[nH]ncc2S1(=O)=O"
  %Inh, %: 20
- Compound: "COc1ccc(Nc2nccc(N3CCC(NC(=O)Nc4ccc5c(c4)OCO5)C3)n2)cc1 (stereo not drawn)"
  %Inh, %: 0
- Compound: "O=C(c1ccc(-c2cc(-c3c[nH]nc3-c3ccccn3)ccn2)cc1)N1CCCC1"
  %Inh, %: 0
- Compound: "CC(C)(C)c1ccc(-n2cnc3c(N)ncnc32)cc1"
  %Inh, %: 22
- Compound: "Cl.c1ccc(Cn2ncc3cc(Nc4ncnc5ccccc45)ccc32)cc1"
  %Inh, %: 0

Item: Clc1ccc(-c2cc(-c3c[nH]nc3-c3ccccn3)ccn2)cc1 Test system: PAK3 Read-out: %Inh Value: ?
2

Can you look up %Inh on PAK3 for Cc1ccc(O)cc1Nc1cc(C(F)(F)F)nc2ccc(-c3ccncc3)cc12 ?
0

Observed %Inh on PAK3 for CCc1nc(-c2cccc(C)c2)c(-c2ccnc(NC(=O)c3ccccc3)c2)s1 , please.
2

Give %Inh (PAK3) of the following compound: C[C@@H]1CCN(C(=O)CO)C[C@@H]1N(C)c1ncnc2[nH]ccc12
0

---

- System: DYRK1B
- Run Parameters: concentration: 1 μM, replicates: in singlicate; n = 1
Doc: threshold 10% (exclusive). Items with %Inh beneath it return YES; others return NO.

- Compound: "CS(=O)(=O)CCNCc1nc(-c2ccc3ncnc(Nc4ccc(OCc5cccc(F)c5)c(Cl)c4)c3c2)cs1.Cl [GW583340]"
  Measured On: "DYRK1B"
  Assigned Category: "NO"
- Compound: "CN1c2ccc(-c3ccc(C(=O)NCCO)cc3)cc2-c2[nH]ncc2S1(=O)=O"
  Measured On: "DYRK1B"
  Assigned Category: "NO"
- Compound: "Clc1cccc(-c2nc(Nc3ccncc3)c3ccccc3n2)c1 [GW873004]"
  Measured On: "DYRK1B"
  Assigned Category: "NO"

I wonder whether NC(=O)c1sc(-n2cnc3ccccc32)cc1OCc1ccccc1F [GSK1024306] has %Inh below 10%. Can you tell?
YES

Could you please tell me whether %Inh recorded for Nc1nccc2scc(-c3ccc4c(c3)CCN4C(=O)Cc3cc(F)ccc3F)c12 [GSK2587663] is less than 10%?
NO

Dear reviewer, please state whether Cn1ccc2ncnc(Nc3ccc(Oc4cccc(Cl)c4)c(Cl)c3)c21 has %Inh strictly beneath 10%.
NO

Please state whether %Inh is below 10% for Nc1nc(-c2ccc3c(N)n[nH]c3c2)cc(N2CCCCC2)n1 [GSK2228768]
YES

Is 10% strictly greater than the compound's reported %Inh? compound: CSc1nn2c(=O)cc(N3CCOCC3)nc2n1Cc1cccc(Cl)c1Cl [GSK2347225]
NO

In the record for Cn1ccc2ncnc(Oc3ccc(NC(=O)Nc4cccnc4)c(Cl)c3)c21 , is %Inh less than 10%?
NO

Could you please tell me whether %Inh recorded for CSc1ccc(NC2=C(c3ccccc3Cl)C(=O)NC2=O)cc1 [SB-342411] is less than 10%?
NO

API: query returns whether the compound falls strictly under 10% in %Inh. Query: Fc1cccc(COc2ccc(Nc3ncnc4sc(-c5ccc[nH]5)cc34)cc2Cl)c1 [GW707818]
NO

State whether 10% exceeds %Inh recorded for Cl.Cn1ccc(-c2cccc(Nc3ccnc4cc(-c5nccs5)ccc34)c2)n1 [GW525701] .
NO

For O=C(CCO)NCCn1ccc2ncnc(Nc3ccc(Oc4cccc(C(F)(F)F)c4)c(Cl)c3)c21 , is the recorded %Inh below the cut-off of 10%?
NO

---

- System: AKT2
- Run Parameters: concentration: 1 μM, replicates: in singlicate; n = 1
%Inh values, listed per item
Unit % implied. Number only.

Below, each entry is followed by its recorded %Inh result.
- Molecule: "Cl.Fc1ccccc1COc1ccc(Nc2ncnc3ccc(-c4nnc(C(F)(F)F)o4)cc23)cc1Cl"
  Reported Value: 0
- Molecule: "Clc1ccc(-c2cc(-c3c[nH]nc3-c3ccccn3)ccn2)cc1"
  Reported Value: 0
- Molecule: "Fc1ccc(Nc2nccc(-c3c(-c4ccc(Cl)cc4)nn4ncccc34)n2)cc1F"
  Reported Value: 9

Recorded %Inh for CC(C)N1CCC(n2cnc(-c3ccc(F)cc3)c2-c2ccnc(N)n2)CC1 , please?
0

%Inh for O=C(Nc1n[nH]c2nc(-c3ccco3)c(Br)cc12)c1ccc(CN2CCCC2)cc1.O=C(O)[C@H](O)[C@@H](O)C(=O)O ?
0

Sample FC(F)(F)c1cc(Nc2nccc(-c3c(-c4ccc(Cl)cc4)nn4ncccc34)n2)ccc1Cl — what was its %Inh?
0

Which measured %Inh value corresponds to CC(C)(C)OC(=O)NC1CCCN(c2cc(-c3ccc4c(N)n[nH]c4c3)nc(N)n2)C1 (stereo not drawn) ?
0

Which measured %Inh value corresponds to COC(=O)c1cccc(NC(=O)NCCNc2ccnc(Nc3ccc(F)cc3)n2)c1 ?
0

---

Consider the following molecules and their measured %Inh readings.
- Tested on: MKNK2
- Run Parameters: concentration: 1 μM, replicates: in singlicate; n = 1
Your answer is read as %, so omit the unit and give the number.

- Molecule: "Nc1nc(-c2ccc3c(N)n[nH]c3c2)cc(N2CCC[C@@H](C(=O)Nc3ccccc3)C2)n1.O=C(O)C(F)(F)F.O=C(O)C(F)(F)F [GSK2288359]"
  Reported Value: 1
- Molecule: "Cc1ccc(C)c(NC(=O)NCCNc2ccnc(Nc3ccc(F)cc3)n2)c1 [GSK1379878]"
  Reported Value: 0

Switching to the query record.
May I ask what %Inh has been recorded for Cl.Cl.c1ccc(-c2cc3ccncc3cc2OC2CCNCC2)cc1 [GSK1122999] ?
4

---

Quick list: %Inh per entry.
- Tested on: PAK7
- Run Parameters: concentration: 1 μM, replicates: in singlicate; n = 1
Enter your answer as a number in %; do not include the unit.

- Smiles Record: "O=C(Nc1ccccc1)Nc1ccc(Oc2ccc3nccn3n2)cc1"
  Value Units: "%"
  Reported Value: 0

// below: %Inh requested for another molecule
%Inh lookup needed for CC(C)(C)c1ccc(-n2cnc3c(N)ncnc32)cc1 , thanks.
0

---

- Test system: DLK
- Construct: gene MAP3K12
- Run Parameters: concentration: 1 μM, replicates: in singlicate; n = 1
Value Kind: %Inh (%)
Value expressed in %; do not type the unit.

Example cases with answers are listed next.
- Compound: "Oc1ccc2ncnc(Nc3ccc(OCc4ccccc4)cc3)c2c1"
  Value Units: "%"
  %Inh: 11
- Compound: "COc1ccc(Nc2nccc(N3CCC(NC(=O)Nc4ccc5c(c4)OCO5)C3)n2)cc1 (stereo not shown)"
  Value Units: "%"
  %Inh: 35
- Compound: "Fc1ccc(Nc2nccc(-c3c(-c4ccc(Cl)cc4)nn4ncccc34)n2)cc1F"
  Value Units: "%"
  %Inh: 20
- Compound: "CC(C)(C)OC(=O)NC1CCCN(c2cc(-c3ccc4c(N)n[nH]c4c3)nc(N)n2)C1 (stereo not shown)"
  Value Units: "%"
  %Inh: 2
- Compound: "CSc1nn2c(=O)cc(N3CCOCC3)nc2n1Cc1cccc(Cl)c1Cl"
  Value Units: "%"
  %Inh: 100
- Compound: "CCc1nc(-c2cccc(C)c2)c(-c2ccnc(NC(=O)c3ccccc3)c2)s1"
  Value Units: "%"
  %Inh: 6

I would be grateful if you could share the reported %Inh for Fc1cccc(COc2ccc(Nc3ncnc4sc(-c5ccc[nH]5)cc34)cc2Cl)c1 .
40

Tell me the measured %Inh of N#Cc1ccc(Oc2ccc(Nc3ncnc4cc[nH]c34)cc2Cl)cc1 , please.
0

Data request, read-out %Inh, for COc1ccc(NC(=O)c2ccc(-c3cc(-c4nnc(C)o4)ccc3C)cc2)cc1
18

For the compound c1ccc(-c2ccc3c(-c4ccnc(Nc5ccc6c(c5)OCCO6)n4)cnn3n2)cc1 , what %Inh is on record?
0

# query: %Inh of entry CCc1nc(-c2cccc(N(C)S(=O)(=O)c3ccccc3)c2)c(-c2ccnc(Nc3ccc(N4CCN(C(C)=O)CC4)nc3)n2)s1
0

Bench note: what %Inh did CN1c2ccc(-c3ccc(C(=O)NCCO)cc3)cc2-c2[nH]ncc2S1(=O)=O show?
29

%Inh lookup needed for Cl.Fc1ccccc1COc1ccc(Nc2ncnc3ccc(-c4nnc(C(F)(F)F)o4)cc23)cc1Cl , thanks.
11

Consider the compound shown here: COC(=O)c1c(-c2ccccc2)c2cc(Cl)ccc2c(=O)n1Cc1ccc(S(C)(=O)=O)cc1 What is its recorded %Inh?
0

Which %Inh is reported for this compound? O=C(Nc1ccccc1F)NC1CCN(c2ccnc(Nc3ccc(F)cc3)n2)C1 (stereo not shown)
23
